# System: Fibroblast
# assay_info: Multiplex assay against human fibroblast
# Type: toxicity, cell-based
# setup_conditions: 48 h, 1 µM, compound concentration 1 uM, replicate 1
assay_readout: Population Mitotic Cells (%)
Note to self: number, then unit, no commentary.

Reported Population Mitotic Cells (%) for CCCCCNC(=N)N/N=C/c1c[nH]c2ccc(OC)cc12.O=C(O)/C=C\C(=O)O [TEGASEROD MALEATE] was 50%

Reported Population Mitotic Cells (%) for CC(C)[C@H](CO)Nc1nc(Nc2cccc(Cl)c2)c2ncn(C(C)C)c2n1 [PURVALANOLA] was 40%

Reported Population Mitotic Cells (%) for C[C@@H](Oc1cc(-n2cnc3ccc(CN4CCN(C)CC4)cc32)sc1C(N)=O)c1ccccc1C(F)(F)F [GSK-461364] was 30%

// data source = ChEMBL document CHEMBL4689842
